Endpoint Name: melting point

- CC1=C(Cl)C(=O)N(c2noc(C(C)(C)C)c2C#N)C1O (centres unmarked) [A31]: 174 to 176 °C
- COC1=C(Br)C(=O)N(c2cc(C(C)(C)C)on2)C1O (centres unmarked) [B2]: 140 to 160 °C
- CCCC1=C(Cl)C(=O)N(c2cc(C(C)(C)C#N)on2)C1O (centres unmarked) [A65]: 99 to 100 °C
- CC1=C(Cl)C(=O)N(c2noc(C(C)(C)C)c2C#N)C1OC(=O)C(C)(C)C (centres unmarked) [A95]: 95 to 97 °C
- CCCC1=C(Cl)C(=O)N(c2noc(C(C)(C)C)c2C#N)C1O (centres unmarked) [A54]: 133 to 135 °C

---

test system: a variety of test species; assay: Pre-emergence herbicidal activity (glasshouse, sprayed one day after sowing, evaluated after 13 days); format: in vivo; parameters: key: 5=total damage to plant; 0=no damage to plant; settings: ABUTH, application pre-emergence, rate 1000 g/Ha, scale 0-5
Endpoint Name: Pre-emergence herbicidal damage score, ABUTH

• COC1=C(OC)C(O)N(c2cc(C(C)(C)C)on2)C1=O (stereo not shown) = 5
• COCCNC1=C(Cl)C(=O)N(c2cc(C(C)(C)C)on2)C1O (stereo not shown) = 4
• CCC1=C(Br)C(=O)N(c2noc(C(C)(C)C)c2C#N)C1O (stereo not shown) = 5
• CC1=C(Cl)C(=O)N(c2noc(C(C)(C)C)c2C#N)C1O (stereo not shown) = 5
• CC1=C(Cl)C(=O)N(c2cc(C(C)(C)C)on2)C1OC(=O)Oc1ccccc1 (stereo not shown) = 5
• CCCC1=C(Br)C(=O)N(c2noc(C(C)(C)C#N)c2C#N)C1OC(=O)CC (stereo not shown) = 5
• CCOc1cc(N2C(=O)C(Cl)=C(C)C2O)no1 (stereo not shown) = 4
• CCC(C)(C)c1onc(N2C(=O)C(Cl)=C(C)C2O)c1C#N (stereo not shown) = 4
• CCC(C)(C)c1cc(N2C(=O)C(Cl)=C(C)C2O)no1 (stereo not shown) = 5
• CC1=C(Cl)C(=O)N(c2noc(C(C)(C)C)c2C#N)C1 = 5

---

System: a variety of test species
Assay: Pre-emergence herbicidal activity (glasshouse, sprayed one day after sowing, evaluated after 13 days)
Assay type: in vivo
Design: key: 5=total damage to plant; 0=no damage to plant
Conditions: ABUTH, application pre-emergence, rate 1000 g/Ha, scale 0-5
Protocol: Seeds of a variety of test species were sown in standard soil in pots. […] After 13 days, the test was evaluated (5=total damage to plant; 0=no damage to plant).
Endpoint Name: Pre-emergence herbicidal damage score, ABUTH

* CC1=C(Cl)C(=O)N(c2cc(C(C)(C)CC#N)on2)C1O (stereo not shown) | 5
* CC(C)(C)CNC1=C(Cl)C(=O)N(c2cc(C(C)(C)C)on2)C1O (stereo not shown) | 0
* CC1=C(Cl)C(=O)N(c2cc(C(C)(C)C)on2)C1OC(=O)SCC(C)C (stereo not shown) | 1
* CC1=C(Cl)C(=O)N(c2noc(C(C)(C)C)c2Br)C1O (stereo not shown) | 5
* CC1=C(Br)C(=O)N(c2cc(C(C)(C)C#N)on2)C1O (stereo not shown) | 5
* C=CCOCC(C)(C)c1cc(N2C(=O)C(Cl)=C(C)C2O)no1 (stereo not shown) | 3
* COC(=O)OC1C(C)=C(Cl)C(=O)N1c1cc(C(C)(C)C)on1 (stereo not shown) | 5
* CC1=C(Cl)C(=O)N(c2noc(C(C)C)c2C#N)C1 | 5
* CC1=C(Cl)C(=O)N(c2cc(C(C)c3ccccc3)on2)C1O (stereo not shown) | 2
* CCCC(C)(C)c1onc(N2C(=O)C(Cl)=C(C)C2O)c1C#N (stereo not shown) | 2
* CCOCCNC1=C(Cl)C(=O)N(c2cc(C(C)(C)C)on2)C1O (stereo not shown) | 4
* COc1ccc(OC(=O)OC2C(C)=C(Cl)C(=O)N2c2cc(C(C)(C)C)on2)cc1 (stereo not shown) | 3
* CCCC1=C(Cl)C(=O)N(c2noc(C(C)C)c2C#N)C1O (stereo not shown) | 0
